meta.source: patent US9346809B2

Experimental Target: JAK3 (catalytic domain, His-tag) (Homo sapiens, UniProt P52333)
Construct: All four purified enzymes contain only the catalytic domain; His (N); purchased Carna Biosciences, Inc; host or cells: baculovirus expression system
Sequence (P52333 822-1111 limits assumed): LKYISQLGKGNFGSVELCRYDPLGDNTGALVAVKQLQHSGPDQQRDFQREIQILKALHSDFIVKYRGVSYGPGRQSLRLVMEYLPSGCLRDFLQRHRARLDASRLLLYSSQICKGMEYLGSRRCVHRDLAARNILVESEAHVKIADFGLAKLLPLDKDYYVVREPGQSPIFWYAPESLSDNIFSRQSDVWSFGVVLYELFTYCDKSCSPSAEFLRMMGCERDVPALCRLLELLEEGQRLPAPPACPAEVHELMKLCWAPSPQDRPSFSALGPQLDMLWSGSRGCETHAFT
Procedure Summary: JAK kinase assay (HTRF, phosphorylation of TK substrate-biotin), JAK3
Assay type: biochemical
Condition Summary: ATP at Km (2 μM); read-out: JAK3 kinase inhibitory activity (EC50 indicator)
pEC50: −log10 of the molar value.
The following compounds are shown together with reported pEC50 values.

{"Compound": "N#Cc1ccc(C(=O)N2[C@@H]3CC[C@H]2CN(c2ncnc4[nH]ccc24)C3)cc1", "pEC50": "6.30 to 7.00"}
{"Compound": "O=C(c1c[nH]c2ccccc12)N1CCN(c2ncnc3[nH]ccc23)CC12CC2", "pEC50": "> 7.00"}
{"Compound": "NS(=O)(=O)c1ccc(C(=O)N2CCN(c3ncnc4[nH]ccc34)CC23CC3)cc1Cl", "pEC50": "> 7.00"}
{"Compound": "CC#CCOC(=O)N1CCN(c2ncnc3[nH]ccc23)CC12CC2", "pEC50": "6.30 to 7.00"}
{"Compound": "O=C(c1cc2ccccc2[nH]1)N1CCN(c2ncnc3[nH]ccc23)CC12CC2", "pEC50": "> 7.00"}
{"Compound": "NS(=O)(=O)c1cc(OCC(=O)N2CCN(c3ncnc4[nH]ccc34)CC23CC3)ccc1Cl", "pEC50": "> 7.00"}
{"Compound": "CC1CN(C(=O)Cc2cccc(C#N)c2)C2(CC2)CN1c1ncnc2[nH]ccc12 (centres unmarked)", "pEC50": "6.30 to 7.00"}
{"Compound": "O=C(c1cnc2ccccc2c1)N1CCN(c2ncnc3[nH]ccc23)CC12CC2", "pEC50": "< 6.30"}

----------
Experimental Target: JAK3 (catalytic domain, His-tag) (Homo sapiens, UniProt P52333)
Construct: All four purified enzymes contain only the catalytic domain; His (N); purchased Carna Biosciences, Inc; host or cells: baculovirus expression system
Procedure Summary: JAK kinase assay (HTRF, phosphorylation of TK substrate-biotin), JAK3
Assay type: biochemical
Condition Summary: ATP at Km (2 μM); read-out: JAK3 kinase inhibitory activity (EC50 indicator)

{"Compound": "CC1CN(C(=O)C2(C#N)CC2)C2(CC2)CN1c1ncnc2[nH]ccc12 (centres unmarked)", "EC50": "100 to 500 nM"}
{"Compound": "Cc1ccc(C(=O)N2CCN(c3ncnc4[nH]ccc34)CC23CC3)s1", "EC50": "< 100 nM"}
{"Compound": "N#CCOc1ccc(C(=O)N2CCN(c3ncnc4[nH]ccc34)CC23CC3)cc1", "EC50": "100 to 500 nM"}
{"Compound": "NS(=O)(=O)CCCC(=O)N1CCN(c2ncnc3[nH]ccc23)CC12CC2", "EC50": "< 100 nM"}
{"Compound": "O=C(C1CCOC1)N1CCN(c2ncnc3[nH]ccc23)CC12CC2 (centres unmarked)", "EC50": "100 to 500 nM"}
{"Compound": "O=C(C1Cc2ccccc21)N1C2CCC1CN(c1ncnc3[nH]ccc13)C2 (centres unmarked)", "EC50": "100 to 500 nM"}
{"Compound": "O=C(CC(F)(F)F)N1[C@@H]2CC[C@H]1CN(c1ncnc3[nH]ccc13)C2", "EC50": "> 500 nM"}
{"Compound": "Cc1c(C(=O)N2C3CCC2CN(c2ncnc4[nH]ccc24)C3)[nH]c2ccc(F)cc12", "EC50": "100 to 500 nM"}
{"Compound": "O=C(c1cc2ccccc2s1)N1CCN(c2ncnc3[nH]ccc23)CC12CC2", "EC50": "100 to 500 nM"}
{"Compound": "O=C(c1cc2ccccc2s1)N1[C@@H]2CC[C@@H]1CN(c1ncnc3[nH]ccc13)C2", "EC50": "< 100 nM"}
{"Compound": "N#CC1(C(=O)N2CCN(c3ccnc4[nH]ccc34)CC23CC3)CC1", "EC50": "100 to 500 nM"}
